Target: T1, TNFR1 (Homo sapiens, UniProt P19438)
T1 chain: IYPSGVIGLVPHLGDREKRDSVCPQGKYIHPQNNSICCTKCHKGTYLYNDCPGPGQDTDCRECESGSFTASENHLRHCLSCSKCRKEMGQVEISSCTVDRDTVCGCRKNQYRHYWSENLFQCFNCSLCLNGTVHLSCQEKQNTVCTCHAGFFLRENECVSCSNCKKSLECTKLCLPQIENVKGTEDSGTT
Assay: yeast display SC50
measurement type: apparent Kd (screen) (nM)

[A] L41F (designed binder) MTLQELLREEALRRAEAEAFRYALELLAEKFPEQKEYLLDFAEEIESQIRSLSGVDVEDVRKFLDKEWAWVKELLAEHPAELAEVEAARAARLAELRAEVEAKVAA
[B] L24H (designed binder) MTLQELLREEALRRAEAEAFRYAHELLAEKFPEQKEYLLDLAEEIESQIRSLSGVDVEDVRKFLDKEWAWVKELLAEHPAELAEVEAARAARLAELRAEVEAKVAA
In: Lab note: check whether A or B has the lower measured apparent Kd (screen). Write the label of whichever entry you select.
Out: A
(A: 0.79 nM, B: 1.54 nM)

Source of measurements: paper PMC12416549
